System: T-47D breast
Experiment: NCI tumour cell line growth inhibition, 48 h
Where a SMILES comes first, the peptide text is derived from it. The star is where a group is joined. Boc = CC(C)(C)OC(=O)*; OBn = c1ccc(CO*)cc1
parameter: TGI

compound="CC(C)C(NC(=O)C(Cc1ccccc1)NC(=O)OC(C)(C)C)C(=O)NCC(=O)OCc1ccccc1 (stereo not drawn) (Boc-Phe-Val-Gly-OBn; configuration not given here)" parameter=TGI assay_value="36.7 µM"
compound="CCCCCCCCCCCCCCCCCCNc1ccn(C2OC(COP(=O)(O)OC3CC(n4cc(F)c(=O)[nH]c4=O)OC3COP(=O)(O)OCC3OC(n4ccc(N)nc4=O)C(O)C3O)C(O)C2O)c(=O)n1 (stereo not drawn)" parameter=TGI assay_value="> 100 µM"
compound="CC(=O)O[C@H]1CC[C@H]2[C@@H]3CCC4C(C)=NNC(=O)C4[C@H]3CC[C@]12C (stereo partly drawn)" parameter=TGI assay_value="> 100 µM"
compound=Nc1c(C(=O)c2ccc(Cl)cc2)sc(Nc2ccccc2)c1-c1nc2ccccc2s1 parameter=TGI assay_value="> 100 µM"
compound=Cc1c(C)c2c(c(N)c1C#N)C(=O)N(CCc1ccccc1)C2=O parameter=TGI assay_value="> 100 µM"
compound=COC(=O)c1cc2c(o1)Sc1ccccc1NC2=O parameter=TGI assay_value="> 100 µM"
compound="C=C1C(=O)OC2/C=C(\\CO)C3OC3C3OC3(C)CC(OC(=O)/C(=C/C)CO)C12 (stereo not drawn)" parameter=TGI assay_value="> 100 µM"
compound="O=c1ccn(C2OC(CO)C(O)C2F)c(=O)[nH]1 (stereo not drawn)" parameter=TGI assay_value="> 1000 µM"
